System: panel of seven human cancer cell lines
Test Summary: Antiproliferative activity across the panel of seven cancer cell lines
Assay type: cell-based
Test Conditions: Homo sapiens, read-out: IC50 range over the panel of cancer cell lines
pIC50: −log10 of the molar value.
This listing pairs compounds with measured pIC50.

{"Compound": "COc1cc(NC(=O)/C=C/c2cccc(N)c2)cc(OC)c1OC [7o]", "pIC50": "4.20 to 5.55"}
{"Compound": "C=C(Br)C(=O)Nc1cccc(/C=C/C(=O)Nc2cccc3ccccc23)c1 [4b]", "pIC50": "5.19 to 6.17"}
{"Compound": "COc1cc(NC(=O)/C=C/c2cccc(OCc3ccccc3)c2)cc(OC)c1OC [1b, reference compound]", "pIC50": "4.66 to 5.66"}
{"Compound": "C=C(Br)C(=O)Nc1cccc(/C=C/C(=O)Nc2cc(OC)c(OC)c(OC)c2)c1 [4o]", "pIC50": "5.64 to 7.74"}

Shifting focus to the compound that follows.
Problem: Form field: reported pIC50 of C=C(Br)C(=O)Nc1cccc(/C=C/C(=O)Nc2ccccc2)c1 [4a]
Result: 4.56 to 6.72
